The reported numbers originate from the supplement of paper PMC9112550.

- Test system: Escherichia coli TOP10
- experiment.notes: shrunken log2 fold change of peptide-encoding DNA abundance (4.5 h post-induction vs induction); higher = less antimicrobial activity (less host growth inhibition)
- experimental.conditions: time post-induction: 4.5 h; library: site-saturation at positions 5, 18, 19, 20
Binned shrunken log2 fold change; ranges: band 1: < -0.2; band 2: ≥ -0.2 and < 0.004; band 3: ≥ 0.004

>>> class("RRIRMRPPRLPRPRPRPTITPRP")
"band 3"
>>> class("RRIRPRPPRLPRPRPRPEHGPRP")
"band 2"
>>> class("RRIRCRPPRLPRPRPRPCACPRP")
"band 1"
>>> class("RRIRDRPPRLPRPRPRPQYKPRP")
"band 2"
>>> class("RRIRNRPPRLPRPRPRPAHCPRP")
"band 1"
>>> class("RRIRERPPRLPRPRPRPLRTPRP")
"band 2"
>>> class("RRIRLRPPRLPRPRPRPCQYPRP")
"band 1"
>>> class("RRIRWRPPRLPRPRPRPTRKPRP")
"band 2"
>>> class("RRIRWRPPRLPRPRPRPPENPRP")
"band 3"
>>> class("RRIRARPPRLPRPRPRPCVHPRP")
"band 3"
>>> class("RRIRERPPRLPRPRPRPAMAPRP")
"band 3"
>>> class("RRIRLRPPRLPRPRPRPRMQPRP")
"band 2"
>>> class("RRIRIRPPRLPRPRPRPHEDPRP")
"band 2"
>>> class("RRIRMRPPRLPRPRPRPMICPRP")
"band 2"
>>> class("RRIRFRPPRLPRPRPRPCPGPRP")
"band 2"

----------
- Tested on: Escherichia coli TOP10
- experiment.notes: shrunken log2 fold change of peptide-encoding DNA abundance (4.5 h post-induction vs induction); higher = less antimicrobial activity (less host growth inhibition)
- experimental.conditions: time post-induction: 4.5 h; library: site-saturation at positions 5, 18, 19, 20
measurement.name: shrunken log2 fold change

>>> result("RRIRVRPPRLPRPRPRPHGCPRP")
-0.041
>>> result("RRIRERPPRLPRPRPRPDQSPRP")
-0.336
>>> result("RRIRVRPPRLPRPRPRPWGKPRP")
-0.0952
>>> result("RRIRYRPPRLPRPRPRPASAPRP")
0.0949
>>> result("RRIRTRPPRLPRPRPRPNTQPRP")
-0.0477
>>> result("RRIRARPPRLPRPRPRPCPPPRP")
0.156
>>> result("RRIRRRPPRLPRPRPRPAMSPRP")
0.157
>>> result("RRIRERPPRLPRPRPRPAIDPRP")
-0.457
>>> result("RRIRMRPPRLPRPRPRPVAMPRP")
0.57
>>> result("RRIRKRPPRLPRPRPRPDTVPRP")
0.00611
>>> result("RRIRYRPPRLPRPRPRPHTYPRP")
-0.189
>>> result("RRIRIRPPRLPRPRPRPIVPPRP")
-0.407
>>> result("RRIRVRPPRLPRPRPRPYTNPRP")
-0.656
>>> result("RRIRLRPPRLPRPRPRPGWHPRP")
0.13
>>> result("RRIRNRPPRLPRPRPRPVYMPRP")
-0.0311

----------
List of shrunken log2 fold change values.
- Tested on: Escherichia coli TOP10;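 note: peptides expressed intracellularly from a pBAD plasmid library in pooled LB shake-flask culture, induced with 0.3% L-arabinose, DNA abundance read by NGS, three biological replicates, DESeq2 with apeglm shrinkage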
- experiment.notes: shrunken log2 fold change of peptide-encoding DNA abundance (4.5 h post-induction vs induction); higher = less antimicrobial activity (less host growth inhibition)
- experimental.conditions: time post-induction: 4.5 h; library: site-saturation at positions 5, 18, 19, 20
measurement.name: shrunken log2 fold change

>>> numeric_readout("RRIRWRPPRLPRPRPRPETGPRP")
0.396
>>> numeric_readout("RRIRDRPPRLPRPRPRPEHCPRP")
-0.0205
>>> numeric_readout("RRIRMRPPRLPRPRPRPGNCPRP")
0.0879
>>> numeric_readout("RRIRNRPPRLPRPRPRPIELPRP")
-0.232
>>> numeric_readout("RRIRIRPPRLPRPRPRPEWVPRP")
0.00655
>>> numeric_readout("RRIRKRPPRLPRPRPRPAIKPRP")
0.191
>>> numeric_readout("RRIRWRPPRLPRPRPRPDSQPRP")
-0.0844
>>> numeric_readout("RRIRHRPPRLPRPRPRPGTTPRP")
-0.221
>>> numeric_readout("RRIRMRPPRLPRPRPRPQMQPRP")
0.108
>>> numeric_readout("RRIRSRPPRLPRPRPRPVQPPRP")
0.107
>>> numeric_readout("RRIRERPPRLPRPRPRPWIYPRP")
0.013
>>> numeric_readout("RRIRFRPPRLPRPRPRPQRVPRP")
0.045
>>> numeric_readout("RRIRKRPPRLPRPRPRPNCGPRP")
0.0611
>>> numeric_readout("RRIRIRPPRLPRPRPRPLWNPRP")
-0.598
>>> numeric_readout("RRIRRRPPRLPRPRPRPPDQPRP")
0.764
>>> numeric_readout("RRIRKRPPRLPRPRPRPVHTPRP")
0.00666
>>> numeric_readout("RRIRLRPPRLPRPRPRPPIGPRP")
0.142
>>> numeric_readout("RRIRCRPPRLPRPRPRPYYDPRP")
-0.361
>>> numeric_readout("RRIRERPPRLPRPRPRPEYPPRP")
-0.162
>>> numeric_readout("RRIRDRPPRLPRPRPRPQLCPRP")
0.365
>>> numeric_readout("RRIRFRPPRLPRPRPRPFTTPRP")
-0.445
>>> numeric_readout("RRIRTRPPRLPRPRPRPTMTPRP")
-0.0413
>>> numeric_readout("RRIRRRPPRLPRPRPRPDFFPRP")
-0.00974
>>> numeric_readout("RRIRNRPPRLPRPRPRPEMPPRP")
-0.0738
>>> numeric_readout("RRIRGRPPRLPRPRPRPGTTPRP")
0.379
>>> numeric_readout("RRIRSRPPRLPRPRPRPDEPPRP")
0.0784
>>> numeric_readout("RRIRRRPPRLPRPRPRPHTNPRP")
-0.547
>>> numeric_readout("RRIRDRPPRLPRPRPRPPNVPRP")
-0.0362
>>> numeric_readout("RRIRHRPPRLPRPRPRPQQHPRP")
-0.384
>>> numeric_readout("RRIRPRPPRLPRPRPRPIYMPRP")
-0.306
>>> numeric_readout("RRIRIRPPRLPRPRPRPGIFPRP")
-0.5
>>> numeric_readout("RRIRYRPPRLPRPRPRPCYPPRP")
-0.37
>>> numeric_readout("RRIRQRPPRLPRPRPRPLLPPRP")
0.0127
>>> numeric_readout("RRIRERPPRLPRPRPRPMLCPRP")
0.05
>>> numeric_readout("RRIRLRPPRLPRPRPRPCWYPRP")
-0.176
>>> numeric_readout("RRIRNRPPRLPRPRPRPGKHPRP")
-0.0999
>>> numeric_readout("RRIRFRPPRLPRPRPRPRRMPRP")
0.397
>>> numeric_readout("RRIRQRPPRLPRPRPRPCYAPRP")
-0.251
>>> numeric_readout("RRIRHRPPRLPRPRPRPNHIPRP")
-0.844
>>> numeric_readout("RRIRVRPPRLPRPRPRPDKWPRP")
-0.151
>>> numeric_readout("RRIRQRPPRLPRPRPRPYRLPRP")
-0.19
>>> numeric_readout("RRIRGRPPRLPRPRPRPFYDPRP")
0.0844
>>> numeric_readout("RRIRKRPPRLPRPRPRPIFVPRP")
0.471
>>> numeric_readout("RRIRHRPPRLPRPRPRPPPYPRP")
0.00808
>>> numeric_readout("RRIRVRPPRLPRPRPRPEYSPRP")
-0.273
>>> numeric_readout("RRIRWRPPRLPRPRPRPLNGPRP")
-0.0406
>>> numeric_readout("RRIRKRPPRLPRPRPRPWRWPRP")
0.595
>>> numeric_readout("RRIRNRPPRLPRPRPRPTVNPRP")
-0.382
>>> numeric_readout("RRIRLRPPRLPRPRPRPYQEPRP")
-0.46
>>> numeric_readout("RRIRKRPPRLPRPRPRPKSCPRP")
0.00967
>>> numeric_readout("RRIRTRPPRLPRPRPRPKHPPRP")
-0.317
>>> numeric_readout("RRIRFRPPRLPRPRPRPEKHPRP")
0.176
>>> numeric_readout("RRIRPRPPRLPRPRPRPTTHPRP")
0.0944
>>> numeric_readout("RRIRKRPPRLPRPRPRPPYIPRP")
-0.69
>>> numeric_readout("RRIRIRPPRLPRPRPRPECYPRP")
-0.146
>>> numeric_readout("RRIRPRPPRLPRPRPRPAMQPRP")
0.11
>>> numeric_readout("RRIRFRPPRLPRPRPRPQCSPRP")
0.0505
>>> numeric_readout("RRIRLRPPRLPRPRPRPKNDPRP")
-0.563
>>> numeric_readout("RRIRKRPPRLPRPRPRPLIAPRP")
0.456
>>> numeric_readout("RRIRFRPPRLPRPRPRPTSIPRP")
-0.296
>>> numeric_readout("RRIRGRPPRLPRPRPRPMWLPRP")
0.25
>>> numeric_readout("RRIRCRPPRLPRPRPRPFNPPRP")
-0.558
>>> numeric_readout("RRIRNRPPRLPRPRPRPALSPRP")
0.0962
